All figures here come from patent US20130217664A1.

Tested on: BA/F3 cell line
Test: BA/F3 viability assay
Details: Mus musculus, BaF3, 48 h, read-out: BA/F3 IC50
pIC50: −log10 of the molar value.
Readout label: pIC50

# compound `CCc1cc(C2(CCNS(=O)(=O)C(F)F)COC2)ccc1N(C)c1cc2c(cn1)ncn2C` ; its pIC50 = 5.30 to 6.00

# compound `CCc1cc(C2CN(CCC(F)(F)F)C2)ncc1N(C)c1cc2c(cn1)ncn2C` ; its pIC50 = < 5.30

# compound `CCc1cc(CNS(C)(=O)=O)cc(F)c1N(C)c1cc2c(cn1)ncn2C` ; its pIC50 = < 5.30

# compound `CCc1cc(C2=CCN(C(=O)C3(O)CC3)CC2)ccc1N(C)c1cc2c(cn1)ncn2C` ; its pIC50 = 5.30 to 6.00

# compound CCc1cc(C(C#N)N2CCC2)ccc1N(C)c1cc2c(cn1)ncn2C (centres unmarked) ; its pIC50 = 5.30 to 6.00

# compound `CCc1cc(C2CN(C(=O)COC)C2)ccc1N(C)c1cc2c(cn1)ncn2C` ; its pIC50 = < 5.30

# compound `CCc1cc(CNC(=O)COC)ccc1N(C)c1cc2c(cn1)ncn2C` ; its pIC50 = < 5.30

# compound `CCc1cc(C2CN(C(=O)C(F)(F)F)C2)ccc1N(C)c1cc2c(cn1)ncn2C` ; its pIC50 = < 5.30

# compound `CCc1cc(N2CCC(F)(F)C2)ncc1N(C)c1cc2c(cn1)ncn2C` ; its pIC50 = 5.30 to 6.00

# compound `CCc1cc(CNS(=O)(=O)N(C)C)ccc1N(C)c1cc2c(cn1)ncn2C` ; its pIC50 = 5.30 to 6.00

# compound `CCc1cc(CNS(=O)(=O)CC#N)ccc1N(C)c1cc2c(cn1)ncn2C` ; its pIC50 = < 5.30
